Some compounds, each annotated with its measured IC50.
# Tested on: COLO 205 colorectal tumor cells
# test-protocol: Tumor cell viability inhibition assay (CellTiter-Glo 2.0, 72 hours)
# Format: cell-based
# applied-conditions: COLO 205 cell viability

Consider the worked cases shown below.
>  <compound>
Cc1cc(-c2cc(Cl)ccc2OCCn2c(C)nc3c(c2=O)CC(N(C)CC2(C)COC2)CC3)c2scc(C(=O)NS(C)(=O)=O)c2n1 (single isomer, unassigned) [Compound 305]

>  <result-value>
< 5 µM

$$$$
>  <compound>
Cc1cc(-c2cc(Cl)ccc2OCCn2c(C)nc3c(c2=O)CC(N(C)C2CC2)CC3)c2scc(C(=O)NS(=O)(=O)c3ccncc3)c2n1 (single isomer, unassigned) [Compound 285]

>  <result-value>
5 to 20 µM

$$$$

Q. Look up COLO 205 colorectal tumor cells data: IC50 of COC1CCN(C2(C)CCc3nc(C)n(CCOc4ccc(Cl)cc4-c4cc(C)nc5c(C(=O)O)csc45)c(=O)c3C2)CC1 (single isomer, unassigned) [Compound 497] , then report it.
A. > 20 µM

Q. State recorded IC50 with COLO 205 colorectal tumor cells, entry COC1CCc2nc(C)n(CCOc3ccc(Cl)cc3-c3cc(C)nc4c(C(=O)O)csc34)c(=O)c2C1 (single isomer, unassigned) [Compound 5] , no comment.
A. 5 to 20 µM

Q. Give IC50 for this entry on COLO 205 colorectal tumor cells: Cc1cc(-c2cc(Cl)ccc2OCCn2c(C)nc3c(c2=O)CC(N(CC(F)(F)F)C2CC2)CC3)c2scc(C(=O)O)c2n1 (single isomer, unassigned) [Compound 320]
A. 5 to 20 µM

====

# Test system: COLO 205 colorectal tumor cells
# test-protocol: Tumor cell viability inhibition assay (CellTiter-Glo 2.0, 72 hours)
# Type: cell-based
# applied-conditions: Homo sapiens, COLO 205, 72 h, COLO 205 cell viability
pIC50: −log10 of the molar value.
test-readout: pIC50

>  <compound>
COC1CCN(C2CCc3nc(C)n(CC#Cc4ccc(Cl)cc4-c4ccnc5c(C(=O)O)csc45)c(=O)c3C2)CC1 (single isomer, unassigned) [Compound 365]

>  <measured-on>
COLO 205 colorectal tumor cells

>  <pIC50>
> 5.30

$$$$
>  <compound>
Cc1cc(-c2cc(Cl)ccc2OCCn2c(C)nc3c(c2=O)C[C@@H](N2CCC[C@H](c4ncccc4F)C2)CC3)c2scc(C(=O)O)c2n1 (single isomer, unassigned) [Compound 467]

>  <measured-on>
COLO 205 colorectal tumor cells

>  <pIC50>
> 5.30

$$$$
>  <compound>
Cc1cc(-c2cc(Cl)ccc2OCCn2c(C)nc3c(c2=O)C[C@@H](N2CCC(c4ccc(F)cc4F)CC2)CC3)c2scc(C(=O)O)c2n1 (single isomer, unassigned) [Compound 419]

>  <measured-on>
COLO 205 colorectal tumor cells

>  <pIC50>
> 5.30

$$$$
>  <compound>
Cc1cc(-c2cc(Cl)ccc2OCCn2c(C)nc3c(c2=O)C[C@H](N2CCC4(CC2)COCCO4)CC3)c2scc(C(=O)O)c2n1 (single isomer, unassigned) [Compound 424]

>  <measured-on>
COLO 205 colorectal tumor cells

>  <pIC50>
> 5.30

$$$$

Q. For the compound Cc1cc(-c2cc(Cl)ccc2OCCn2c(C)nc3c(c2=O)C[C@H](N2CCC4(CC2)NC(=O)NC4=O)CC3)c2scc(C(=O)O)c2n1 (single isomer, unassigned) [Compound 430] , report pIC50.
A. > 5.30

Q. Supply pIC50 value. Item: Cc1cc(-c2cc(Cl)ccc2OCCn2c(C)nc3c(c2=O)C[C@H](N2CCC(C(F)(F)F)CC2)CC3)c2scc(C(=O)O)c2n1 (single isomer, unassigned) [Compound 373]
A. > 5.30

Q. Recall and state the measured pIC50 for Cc1cc(-c2cc(Cl)ccc2OCCn2c(C)nc3c(c2=O)C[C@@H](N2CCC(c4nccs4)CC2)CC3)c2scc(C(=O)O)c2n1 (single isomer, unassigned) [Compound 476] .
A. > 5.30

Q. For the compound Cc1cc(-c2cc(Cl)ccc2OCCn2c(C)nc3c(c2=O)C[C@H](N2CCC4(CC2)CC4(F)F)CC3)c2scc(C(=O)O)c2n1 (single isomer, unassigned) [Compound 390] , give its reported pIC50.
A. > 5.30

Q. Let me know recorded pIC50 for Cc1cc(-c2cc(Cl)ccc2OCCn2c(C)nc3c(c2=O)C[C@H](N2CC[C@H](OC(F)(F)F)C(F)(F)C2)CC3)c2scc(C(=O)O)c2n1 (single isomer, unassigned) [Compound 404] , thanks.
A. 4.70 to 5.30

Q. Check the records and state pIC50 for Cc1cc(-c2cc(Cl)ccc2OCCn2c(C)nc3c(c2=O)CC(N(CC(F)(F)F)C2CC2)CC3)c2scc(C(=O)O)c2n1 (single isomer, unassigned) [Compound 319]
A. 4.70 to 5.30

====

# Tested on: COLO 205 colorectal tumor cells
# test-protocol: Tumor cell viability inhibition assay (CellTiter-Glo 2.0, 72 hours)
# Assay type: cell-based
# applied-conditions: Homo sapiens, COLO 205, 72 h, COLO 205 cell viability
# IC50 values compiled below

// known answers, use as guide
>  <compound>
Cc1cc(-c2cc(Cl)ccc2OCCn2c(C)nc3c(c2=O)CC(N(C)CC24CC(C2)C4)CC3)c2scc(C(=O)O)c2n1 (stereo not drawn)

>  <result-value>
< 5 µM

$$$$
>  <compound>
Cc1cc(-c2cc(Cl)ccc2OCCn2c(C)nc3c(c2=O)C[C@@H](N(C)C[C@H]2C[C@H](C(F)(F)F)C2)CC3)c2scc(C(=O)O)c2n1 (single isomer, unassigned)

>  <result-value>
< 5 µM

$$$$

Now look at this one.
Q. Supply measured IC50 of Cc1cc(-c2cc(Cl)ccc2OCCn2c(C)nc3c(c2=O)C[C@@H](N2CCC(n4ccnn4)CC2)CC3)c2scc(C(=O)O)c2n1 (single isomer, unassigned) in your reply.
A. 5 to 20 µM

====

# Tested on: COLO 205 colorectal tumor cells
# test-protocol: Tumor cell viability inhibition assay (CellTiter-Glo 2.0, 72 hours)
# Assay type: cell-based
# applied-conditions: Homo sapiens, COLO 205, 72 h, COLO 205 cell viability
IC50 overview

Record excerpt, results attached:
>  <compound>
COc1cc(CN(C)C2CCc3nc(C)n(CCOc4ccc(Cl)cc4-c4cc(C)nc5c(C(=O)O)csc45)c(=O)c3C2)ccn1 (stereo not drawn) [Compound 248]

>  <test-readout>
IC50

>  <result-value>
< 5 µM

$$$$
>  <compound>
Cc1cc(-c2cc(Cl)ccc2OCCn2c(C)nc3c(c2=O)C[C@H](N2C[C@@H]4CC[C@H]2CC4OC(F)(F)F)CC3)c2scc(C(=O)O)c2n1 (single isomer, unassigned) [Compound 501]

>  <test-readout>
IC50

>  <result-value>
< 5 µM

$$$$
>  <compound>
CO[C@H](C1CCN([C@@H]2CCc3nc(C)n(CCOc4ccc(Cl)cc4-c4cc(C)nc5c(C(=O)O)csc45)c(=O)c3C2)CC1)C(F)(F)F (single isomer, unassigned) [Compound 552]

>  <test-readout>
IC50

>  <result-value>
< 5 µM

$$$$

Q. # lookup: COLO 205 colorectal tumor cells IC50, key = Cc1cc(-c2cc(Cl)ccc2OCCn2c(C)nc3c(c2=O)C[C@@H](N2CCC(c4cc(F)ccc4C(F)(F)F)CC2)CC3)c2scc(C(=O)O)c2n1 (single isomer, unassigned) [Compound 586]
A. < 5 µM

Q. Please tell me the measured IC50 for Cc1nc2c(c(=O)n1CC#Cc1ccc(Cl)cc1-c1ccnc3c(C(=O)O)csc13)CC(N(C)C1CC1)CC2 (stereo not drawn) [Compound 290] ; system: COLO 205 colorectal tumor cells.
A. < 5 µM

Q. Name the value of IC50 reported for Cc1cc(-c2cc(Cl)ccc2OCCn2c(C)nc3c(c2=O)CC(N2CCC4(CC2)CC4)CC3)c2scc(C(=O)O)c2n1 (stereo not drawn) [Compound 192] when tested on COLO 205 colorectal tumor cells.
A. < 5 µM

====

In what follows, each item is paired with its IC50 for UniProt P06730.
Sequence (P06730 whole entry): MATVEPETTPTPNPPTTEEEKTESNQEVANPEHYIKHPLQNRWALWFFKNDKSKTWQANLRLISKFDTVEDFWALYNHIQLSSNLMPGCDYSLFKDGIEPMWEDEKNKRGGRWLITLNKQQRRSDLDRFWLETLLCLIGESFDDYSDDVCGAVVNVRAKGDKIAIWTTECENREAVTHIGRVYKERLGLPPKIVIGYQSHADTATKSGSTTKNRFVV

Below, each entry is followed by its recorded IC50 result.
>  <molecule>
Cc1cc(-c2cc(Cl)ccc2OCCn2c(C)nc3c(c2=O)C[C@@H](N(C)[C@H]2CC[C@](C)(O)CC2)CC3)c2scc(C(=O)O)c2n1 (single isomer, unassigned)

>  <test-readout>
IC50

>  <result-value>
< 0.1 µM

$$$$
>  <molecule>
Cc1cc(-c2cc(Cl)ccc2OCCn2c(C)nc3c(c2=O)CC(N(C)Cc2ccc(=O)[nH]c2)CC3)c2scc(C(=O)O)c2n1 (single isomer, unassigned) [Compound 235]

>  <test-readout>
IC50

>  <result-value>
< 0.1 µM

$$$$

Moving on to another molecule below.
Q. For Cc1cc(-c2cc(Cl)ccc2OCCn2c(C)nc3c(c2=O)C[C@@H](N2CCC(c4cn(C)cn4)CC2)CC3)c2scc(C(=O)O)c2n1 (single isomer, unassigned) , write its IC50.
A. < 0.1 µM
